Biological target: human Src enzyme (Homo sapiens)
Construct: purchased Carna Biosciences, Inc. 08-173
Assay: Src enzyme inhibitory activity (time-resolved fluorometry, biotinylated peptide phosphorylation)
Format: biochemical
Conditions: biotinylated peptide phosphorylation, read-out: SRC_IC50
quantity: IC50 (nM)
Supply the numeric figure in nM, leaving out any unit text.

Hey, human Src enzyme (Homo sapiens) data for Cc1cc(Oc2ccccc2F)cc(F)c1-n1ncc(C(=O)c2cc3cc(OCC(F)F)c(NS(C)(=O)=O)cc3[nH]2)c1N [Example 4-24-025] : IC50 came out at 59

Tested system human Src enzyme (Homo sapiens); IC50 recorded for Cc1cc(Oc2ccccc2F)cc(F)c1-n1ncc(C(=O)c2cc3cc(OC(F)F)c(NS(=O)(=O)CCCF)cc3[nH]2)c1N [Example 4-24-006] was 200

Entry Cc1cc(Oc2cc(F)ccc2F)ncc1-n1ncc(C(=O)c2cc3cc(F)c(NS(C)(=O)=O)cc3[nH]2)c1N [Example 4-2-030] , tested on human Src enzyme (Homo sapiens), has a reported IC50 of 110

Tested on human Src enzyme (Homo sapiens): Cc1cc(Oc2ccccc2F)ccc1-n1ncc(C(=O)c2cc3cc(OCC(F)F)c(N4CCOC4=O)cc3[nH]2)c1N [Example 4-21-003] . Observed IC50: 2.4

Known value: human Src enzyme (Homo sapiens) IC50 of the compound Cc1cc(Oc2c(F)cccc2F)ncc1-n1ncc(C(=O)c2cc3cc(F)c(N4C(=O)N[C@@H](C)C4=O)cc3[nH]2)c1N [Example 5-1-406] equals 75

human Src enzyme (Homo sapiens) assay, compound Cc1cncc(S(=O)(=O)Nc2cc3[nH]c(C(=O)c4cnn(-c5cnc(Oc6ccccc6F)cc5C)c4N)cc3cc2C)c1 [Example 5-1-488] , recorded IC50 = 520

human Src enzyme (Homo sapiens) data for Cc1cc(Oc2ccccc2F)ccc1-n1ncc(C(=O)c2cc3cc(OCC(F)F)c(NS(=O)(=O)c4cccc(Cl)c4)cc3[nH]2)c1N [Example 5-1-417] ; its IC50: 240

Item: Cc1cc(Oc2ccccc2F)ncc1-n1ncc(C(=O)c2cc3cc(OCC(F)F)c(C4CCN(S(=O)(=O)C5CC5)CC4)cc3[nH]2)c1N [Example 4-17-022] | System: human Src enzyme (Homo sapiens) | IC50: 14

Lab note: compound Cc1cc(Oc2c(F)cccc2F)ncc1-n1ncc(C(=O)c2cc3cc(OC(F)F)c(NS(=O)(=O)CCCF)cc3[nH]2)c1N [Example 4-24-012] tested on human Src enzyme (Homo sapiens); recorded IC50 was 100

The measured IC50 that Cc1cc(Oc2c(F)cccc2F)ncc1-n1ncc(C(=O)c2cc3cc(OCC(F)F)c(C4CCN(S(C)(=O)=O)CC4)cc3[nH]2)c1N [Example 4-17-023] showed for human Src enzyme (Homo sapiens) is 27

====

Molecular target: human Src enzyme (Homo sapiens, UniProt P12931)
Construct: purchased Carna Biosciences, Inc. 08-173
Sequence (P12931 whole entry): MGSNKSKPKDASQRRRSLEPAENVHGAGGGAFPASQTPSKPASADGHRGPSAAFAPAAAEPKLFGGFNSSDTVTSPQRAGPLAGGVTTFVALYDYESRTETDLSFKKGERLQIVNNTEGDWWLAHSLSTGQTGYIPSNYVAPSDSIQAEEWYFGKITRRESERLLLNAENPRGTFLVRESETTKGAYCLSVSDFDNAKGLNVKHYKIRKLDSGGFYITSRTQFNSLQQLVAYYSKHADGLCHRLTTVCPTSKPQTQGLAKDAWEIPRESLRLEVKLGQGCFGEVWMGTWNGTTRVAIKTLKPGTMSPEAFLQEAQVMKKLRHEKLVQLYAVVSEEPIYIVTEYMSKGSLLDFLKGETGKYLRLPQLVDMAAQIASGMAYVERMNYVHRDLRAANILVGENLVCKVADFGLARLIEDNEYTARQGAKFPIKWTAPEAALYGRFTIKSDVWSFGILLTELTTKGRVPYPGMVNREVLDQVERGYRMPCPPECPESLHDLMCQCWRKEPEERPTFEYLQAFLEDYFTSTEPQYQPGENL
Experiment: Src enzyme inhibitory activity (time-resolved fluorometry, biotinylated peptide phosphorylation)
Assay type: biochemical
Conditions: read-out: SRC_IC50
pIC50: −log10 of the molar value.
Label condition met for high-side pIC50 (at or above 7) and condition not met for low-side pIC50 (below it).

Kindly determine if pIC50 recorded for `Cc1cc(Oc2c(F)cccc2F)ncc1-n1ncc(C(=O)c2cc3cc(OC(F)F)c(NC4CN(S(C)(=O)=O)C4)cc3[nH]2)c1N` is above or exactly 7.
condition met

In plain terms: is recorded pIC50 at least 7 for `Nc1c(C(=O)c2cc3cc(F)c(NS(=O)(=O)CCCF)cc3[nH]2)cnn1-c1c(Cl)cc(Oc2cccc(F)c2F)cc1Cl` ?
condition not met

Does the molecule `Cc1cc(Oc2ccccc2F)ccc1-n1ncc(C(=O)c2cc3cc(F)c(N4CCOC4=O)cc3[nH]2)c1N` have recorded pIC50 that is 7 or more?
condition met

Hello, I need to know if `Cc1cc(Oc2c(F)cccc2F)ncc1-n1ncc(C(=O)c2cc3cc(F)c(N4C(=O)NC5(COC5)C4=O)cc3[nH]2)c1N` has measured pIC50 not below 7. Thanks!
condition met

Check this molecule for pIC50 at or above 7: `Cc1cc(Oc2ccccc2F)ccc1-n1ncc(C(=O)c2cc3cc(OCC(F)F)c(NC(=O)OCC4c5ccccc5-c5ccccc54)cc3[nH]2)c1N`
condition not met

Could you please find out whether `Cc1cc(-n2ncc(C(=O)c3cc4cc(F)c(NS(C)(=O)=O)cc4[nH]3)c2N)ccc1Oc1ccccc1F` has pIC50 that meets 7 or exceeds it?
condition not met

# check: pIC50 of `Cc1cc(Oc2c(F)cccc2F)ncc1-n1ncc(C(=O)c2cc3cc(F)c(-n4c(C)cc(=O)[nH]c4=O)cc3[nH]2)c1N` is greater than or equal to 7
condition met

# check: pIC50 of `Cc1cc(Oc2c(F)cccc2F)ncc1-n1ncc(C(=O)c2cc3cc(OC4CCN(C5COC5)CC4)c(Br)cc3[nH]2)c1N` is greater than or equal to 7
condition met

Is it the case that `Cc1ccc(S(=O)(=O)Nc2cc3[nH]c(C(=O)c4cnn(-c5cnc(Oc6c(F)cccc6F)cc5C)c4N)cc3cc2OCC(F)F)cc1` has pIC50 reaching or exceeding 7?
condition not met

Please indicate if the recorded pIC50 for `Cc1cc(-n2ncc(C(=O)c3cc4cc(OCC(F)F)c(N)cc4[nH]3)c2N)ccc1Oc1ccccc1F` meets or exceeds 7.
condition not met

Reported pIC50 reaches at least 7 for `Cc1cc(Oc2c(F)cccc2F)ncc1-n1ncc(C(=O)c2cc3cc(OC4CCN(C(C)C)CC4)c(NS(C)(=O)=O)cc3[nH]2)c1N` ?
condition met

====

Target: human Lck enzyme (Homo sapiens)
Construct: purchased Carna Biosciences, Inc. 08-170
Sequence (P06239 whole entry): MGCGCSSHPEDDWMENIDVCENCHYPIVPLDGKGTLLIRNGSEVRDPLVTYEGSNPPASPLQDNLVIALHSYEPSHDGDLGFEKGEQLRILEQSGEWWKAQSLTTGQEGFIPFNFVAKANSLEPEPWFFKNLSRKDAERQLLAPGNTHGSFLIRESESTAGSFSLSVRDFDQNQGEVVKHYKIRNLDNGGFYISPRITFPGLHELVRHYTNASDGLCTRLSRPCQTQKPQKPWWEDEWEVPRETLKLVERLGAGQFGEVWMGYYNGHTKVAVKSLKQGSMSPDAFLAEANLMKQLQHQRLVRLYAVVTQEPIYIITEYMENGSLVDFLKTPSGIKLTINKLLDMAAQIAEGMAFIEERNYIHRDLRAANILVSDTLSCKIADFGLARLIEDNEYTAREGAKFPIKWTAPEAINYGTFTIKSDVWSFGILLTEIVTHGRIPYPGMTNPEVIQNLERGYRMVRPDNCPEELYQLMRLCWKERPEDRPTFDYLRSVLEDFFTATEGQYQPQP
Experiment: Lck enzyme inhibitory activity (time-resolved fluorometry, biotinylated peptide phosphorylation)
Format: biochemical
Settings: biotinylated peptide phosphorylation, read-out: LCK_IC50
Kindly supply the reported pIC50 values for the records listed here.
Please note pIC50 is a logarithmic value: minus log10 of concentration in mol/L. Answer with that number alone.

pIC50 in this record for `CCN(CC)C(=O)CS(=O)(=O)Nc1cc2[nH]c(C(=O)c3cnn(-c4cnc(Oc5ccccc5F)cc4C)c3N)cc2cc1F` : 7.74

Value of measured pIC50 for the entry `Cc1cc(Oc2ccccc2F)ncc1-n1ncc(C(=O)c2cc3cc(OCC(F)F)c(NS(=O)(=O)c4cc(F)cc(F)c4)cc3[nH]2)c1N` : 6.80

Entry `Cc1cc(Oc2ccccc2F)cc(F)c1-n1ncc(C(=O)c2cc3cc(OC(F)F)c(NS(=O)(=O)CCCF)cc3[nH]2)c1N` — recorded pIC50 = 7.29

Value of measured pIC50 for the entry `Cc1cc(Oc2ccccc2F)ccc1-n1ncc(C(=O)c2cc3cc(C4CC4)c(NS(=O)(=O)CCCF)cc3[nH]2)c1N` : 7.44

For `Cc1cc(Oc2c(F)cccc2F)ncc1-n1ncc(C(=O)c2cc3cc(F)c(NS(=O)(=O)c4cc(F)cc(F)c4)cc3[nH]2)c1N` the molecule record lists pIC50 as 6.23

Reported pIC50 of `Cc1cc2cc(C(=O)c3cnn(-c4cnc(Oc5c(F)cccc5F)cc4C)c3N)[nH]c2cc1N1CCCS1(=O)=O` : 8.03

molecule `Cc1cc(Oc2c(F)cccc2F)ncc1-n1ncc(C(=O)c2cc3cc(F)c(N4C(=O)N[C@@H](CO)C4=O)cc3[nH]2)c1N` , pIC50 observed: 8.46

# pIC50 (molecule: `Cc1cc2cc(C(=O)c3cnn(-c4cnc(Oc5c(F)cccc5F)cc4C)c3N)[nH]c2cc1N1C(=O)N[C@@H](C)C1=O` ) is 8.31

The value of pIC50 measured for the molecule `Cc1cc(Oc2cc(F)ccc2F)cc(F)c1-n1ncc(C(=O)c2cc3cc(NS(C)(=O)=O)c(F)cc3[nH]2)c1N` turned out to be 8.54

====

Biological target: human Yes1 enzyme (Homo sapiens, UniProt P07947)
Construct: made in house
Sequence (P07947 whole entry): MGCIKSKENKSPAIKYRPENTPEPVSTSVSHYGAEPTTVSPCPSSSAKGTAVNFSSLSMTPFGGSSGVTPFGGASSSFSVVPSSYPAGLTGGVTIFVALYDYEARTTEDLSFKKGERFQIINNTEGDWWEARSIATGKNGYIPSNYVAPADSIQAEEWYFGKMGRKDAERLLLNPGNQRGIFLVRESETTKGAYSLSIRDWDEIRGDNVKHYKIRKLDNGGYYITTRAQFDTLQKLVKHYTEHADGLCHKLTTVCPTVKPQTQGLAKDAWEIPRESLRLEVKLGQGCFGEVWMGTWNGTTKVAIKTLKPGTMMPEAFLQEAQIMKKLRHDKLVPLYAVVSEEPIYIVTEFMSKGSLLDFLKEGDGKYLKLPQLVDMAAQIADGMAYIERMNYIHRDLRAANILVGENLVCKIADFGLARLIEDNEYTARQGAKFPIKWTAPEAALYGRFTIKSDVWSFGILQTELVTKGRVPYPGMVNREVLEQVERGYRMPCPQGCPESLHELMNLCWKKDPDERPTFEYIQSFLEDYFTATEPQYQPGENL
Experiment: Yes1 enzyme inhibitory activity (time-resolved fluorometry, biotinylated peptide phosphorylation)
Type: biochemical
Conditions: read-out: YES_IC50
quantity: pIC50
API: returns pIC50 as number; meaning -log10 of concentration in mol/L.

Reading of pIC50 for `Cc1cc2cc(C(=O)c3cnn(-c4cnc(Oc5ccccc5F)cc4C)c3N)[nH]c2cc1NS(=O)(=O)CC(=O)NC(C)C` with human Yes1 enzyme (Homo sapiens, UniProt P07947): 8.80

The recorded pIC50 with human Yes1 enzyme (Homo sapiens, UniProt P07947) for `Cc1cc(Oc2c(F)cccc2F)ncc1-n1ncc(C(=O)c2cc3cc(OCC(F)F)c(N4C(=O)NC5(CCNCC5)C4=O)cc3[nH]2)c1N` was 9.10

// returns pIC50 for `Cc1cc(Oc2ccccc2F)ccc1-n1ncc(C(=O)c2cc3cc(N4CCOCC4)c(N4C(=O)NC(C)(C)C4=O)cc3[nH]2)c1N` with human Yes1 enzyme (Homo sapiens, UniProt P07947); value = 9.32

pIC50 on human Yes1 enzyme (Homo sapiens, UniProt P07947) for `Cc1cc(-n2ncc(C(=O)c3cc4cc(OC(F)F)c(N5CCOCC5)cc4[nH]3)c2N)ccc1Oc1ccccc1F` is 8.59

pIC50 value, target or system human Yes1 enzyme (Homo sapiens, UniProt P07947), for `COc1cc2cc(C(=O)c3cnn(-c4c(C)cc(Oc5ccccc5F)cc4F)c3N)[nH]c2cc1NS(=O)(=O)CC(=O)N1CCCC1` : 9.25

Param item: `Cc1cc2cc(C(=O)c3cnn(-c4cnc(Oc5ccccc5F)cc4C)c3N)[nH]c2cc1N1CCC(N2CCOCC2)CC1` ; param system: human Yes1 enzyme (Homo sapiens, UniProt P07947); output pIC50: 9.55

Summary: `Cc1cc(Oc2c(F)cccc2F)ncc1-n1ncc(C(=O)c2cc3cc(OC4CCN(C(C)C)CC4)c(N4CCOCC4)cc3[nH]2)c1N` , human Yes1 enzyme (Homo sapiens, UniProt P07947), pIC50 = 9.44

Bench note, human Yes1 enzyme (Homo sapiens, UniProt P07947): `Cc1cc(-n2ncc(C(=O)c3cc4cc(OC5CCN(C6CCC6)CC5)c(Cl)cc4[nH]3)c2N)ccc1Oc1ccccc1F` , pIC50 reads 8.54

pIC50 of `Cc1cc(-n2ncc(C(=O)c3cc4cc(OC(F)F)c(N5CCC(N6CCOCC6)CC5)cc4[nH]3)c2N)ccc1Oc1ccccc1F` , assay on human Yes1 enzyme (Homo sapiens, UniProt P07947), is 8.85

Fill in: human Yes1 enzyme (Homo sapiens, UniProt P07947) pIC50 for `Cc1cc(Oc2c(F)cccc2F)ncc1-n1ncc(C(=O)c2cc3cc(F)c(N4CCN(S(C)(=O)=O)CC4)cc3[nH]2)c1N` = 8.68

pIC50 on human Yes1 enzyme (Homo sapiens, UniProt P07947) for `Cc1cc(Oc2ccc(F)cc2)ncc1-n1ncc(C(=O)c2cc3cc(F)c(NS(=O)(=O)C4CC4)cc3[nH]2)c1N` is 8.10

Considering `Cc1cc(-n2ncc(C(=O)c3cc4cc(OC5CCN(C(C)C)CC5)c(F)cc4[nH]3)c2N)ccc1Oc1cccc(F)c1` , its pIC50 with human Yes1 enzyme (Homo sapiens, UniProt P07947) was recorded as 8.43

Sample `Cc1cc2cc(C(=O)c3cnn(-c4cnc(Oc5ccc(F)cc5)cc4C)c3N)[nH]c2cc1NS(=O)(=O)N1CCOCC1` , system: human Yes1 enzyme (Homo sapiens, UniProt P07947). Its pIC50 is 7.62

Item `CC(C)N1CCC(c2cc3cc(C(=O)c4cnn(-c5ccc(Oc6ccccc6Cl)cc5)c4N)[nH]c3cc2F)CC1` ; assay system human Yes1 enzyme (Homo sapiens, UniProt P07947); pIC50 reported as 8.96

Record `Cc1cc(-n2ncc(C(=O)c3cc4cc(OCC(F)F)c(NS(C)(=O)=O)cc4[nH]3)c2N)ccc1Oc1ccccc1F` / human Yes1 enzyme (Homo sapiens, UniProt P07947), pIC50 recorded as 8.70

Measured pIC50 for this entry `Cc1cc2cc(C(=O)c3cnn(-c4ccc(Oc5ccccc5F)cc4C)c3N)[nH]c2cc1N1CCC(N2CCOCC2)CC1` on human Yes1 enzyme (Homo sapiens, UniProt P07947): 9.00

Considering `Cc1cc(Oc2c(F)cccc2F)ncc1-n1ncc(C(=O)c2cc3cc(OC4CCN(C(C)C)CC4)c(NS(C)(=O)=O)cc3[nH]2)c1N` , its pIC50 with human Yes1 enzyme (Homo sapiens, UniProt P07947) was recorded as 9.37
